- Tested on: Her2 low expression human MCF-7 breast tumor cells
- method_description: Cytotoxicity assay (growth inhibition, CellTiter-Glo) on MCF-7
- setup_conditions: Homo sapiens, MCF7, 120 h, read-out: Cytotoxicity assay IC50 MCF7, MCF-7 cells, 120 hours, CellTiter-Glo
Values of IC50 strictly less than 20 nM map to MET, and values of at least 20 nM map to NOT MET.

Here's what some known entries look like.
COc1cc2cc(c1Cl)N(C)C(=O)C[C@H](OC(=O)C(COCCSSC)OC)[C@]1(C)O[C@H]1[C@H](C)C1C[C@@](O)(NC(=O)O1)[C@H](OC)/C=C/C=C(\C)C2 (stereo partly drawn) = MET
COc1cc2cc(c1Cl)N(C)C(=O)C[C@H](OC(=O)[C@H](C)N(C)[C@@H](CCSSC)C(F)(F)F)[C@]1(C)O[C@H]1[C@H](C)[C@@H]1C[C@@](O)(NC(=O)O1)[C@H](OC)/C=C/C=C(\C)C2 (single isomer, unassigned) = MET
COc1cc2cc(c1Cl)N(C)C(=O)C[C@H](OC(=O)[C@H](C)OCCSC1CC(=O)N(C[C@H]3CC[C@H](C(=O)ON4C(=O)CCC4=O)CC3)C1=O)[C@]1(C)O[C@H]1[C@H](C)C1C[C@@](O)(NC(=O)O1)[C@H](OC)/C=C/C=C(\C)C2 (stereo partly drawn) = NOT MET
COc1cc2cc(c1Cl)N(C)C(=O)C[C@H](OC(=O)[C@H](C)OCCOCCOCCNC(=O)CBr)[C@]1(C)O[C@H]1[C@H](C)C1C[C@@](O)(NC(=O)O1)[C@H](OC)/C=C/C=C(\C)C2 = MET
COc1cc2cc(c1Cl)N(C)C(=O)C[C@H](OC(=O)[C@H](C)OCCOCCOCC(=O)ON1C(=O)CCC1=O)[C@]1(C)O[C@H]1[C@H](C)C1C[C@@](O)(NC(=O)O1)[C@H](OC)/C=C/C=C(\C)C2 = NOT MET

Next, consider the following compound.
Q: Criterion: IC50 strictly below 20 nM. Is it met by `COc1cc2cc(c1Cl)N(C)C(=O)C[C@H](OC(=O)[C@H](C)OCCOCCOCCOCCOCCOCCN1C(=O)C=CC1=O)[C@]1(C)O[C@H]1[C@H](C)C1C[C@@](O)(NC(=O)O1)[C@H](OC)/C=C/C=C(\C)C2` ?
Result: NOT MET

###

- System: Her2 low expression human MCF-7 breast tumor cells
- method_description: Cytotoxicity assay (growth inhibition, CellTiter-Glo) on MCF-7
- setup_conditions: Homo sapiens, MCF7, 120 h, read-out: Cytotoxicity assay IC50 MCF7, MCF-7 cells, 120 hours, CellTiter-Glo
test_readout: IC50
Please give the number followed by its unit.

COc1cc2cc(c1Cl)N(C)C(=O)C[C@H](OC(=O)C(COCCCSSC)OC)[C@]1(C)O[C@H]1[C@H](C)C1C[C@@](O)(NC(=O)O1)[C@H](OC)/C=C/C=C(\C)C2 (single isomer, unassigned) = 7 nM

Q: # value lookup — system Her2 low expression human MCF-7 breast tumor cells, readout IC50, item COc1cc2cc(c1Cl)N(C)C(=O)C[C@H](OC(=O)[C@H]1CC[C@H](CSC3CC(=O)N(C[C@H]4CC[C@H](C(=O)ON5C(=O)CCC5=O)CC4)C3=O)CC1)[C@]1(C)O[C@H]1[C@H](C)C1C[C@@](O)(NC(=O)O1)[C@H](OC)/C=C/C=C(\C)C2 (stereo partly shown)
Result: 13.1 nM

Q: Recorded IC50 for COc1cc2cc(c1Cl)N(C)C(=O)C[C@H](OC(=O)[C@@H](C)N(C)C(=O)CCS)C1(C)O[C@H]1[C@H](C)C1C[C@@](O)(NC(=O)O1)[C@H](OC)/C=C/C=C(\C)C2 (stereo partly shown) [DM1, reference compound] with Her2 low expression human MCF-7 breast tumor cells, please?
Result: 16 nM

Q: Record COc1cc2cc(c1Cl)N(C)C(=O)C[C@H](OC(=O)[C@H](C)OCCOCCOCCOCCOCCOCCNC(=O)CBr)[C@]1(C)O[C@H]1[C@H](C)C1C[C@@](O)(NC(=O)O1)[C@H](OC)/C=C/C=C(\C)C2 [CE-052a] : what is its IC50 with Her2 low expression human MCF-7 breast tumor cells?
Result: 18.4 nM

###

- Tested on: Her2 low expression human MCF-7 breast tumor cells
- method_description: Cytotoxicity assay (growth inhibition, CellTiter-Glo) on MCF-7
- setup_conditions: Homo sapiens, MCF7, 120 h, read-out: Cytotoxicity assay IC50 MCF7, MCF-7 cells, 120 hours, CellTiter-Glo
test_readout: pIC50
# pIC50: negative log10 of molar concentration; output just the value

COc1cc2cc(c1Cl)N(C)C(=O)C[C@H](OC(=O)C1CCC(CSSC)OC1)[C@]1(C)O[C@H]1[C@H](C)C1C[C@@](O)(NC(=O)O1)[C@H](OC)/C=C/C=C(\C)C2 (stereo partly drawn) = 7.66
COc1cc2cc(c1Cl)N(C)C(=O)CC(OC(=O)[C@@H](C)N(C)C(=O)CCC(SSC)C(C)C)[C@]1(C)O[C@H]1[C@H](C)[C@@H]1C[C@@](O)(NC(=O)O1)[C@H](OC)/C=C/C=C(\C)C2 (stereo partly drawn) = 7.01
COc1cc2cc(c1Cl)N(C)C(=O)C[C@H](OC(=O)[C@H](C)OCCCSSC)[C@]1(C)O[C@H]1[C@H](C)[C@@H]1C[C@@](O)(NC(=O)O1)[C@H](OC)/C=C/C=C(\C)C2 = 7.41
COc1cc2cc(c1Cl)N(C)C(=O)C[C@H](OC(=O)[C@H](C)N(C)[C@H](CCSSC)C(F)(F)F)[C@]1(C)O[C@H]1[C@H](C)[C@@H]1C[C@@](O)(NC(=O)O1)[C@H](OC)/C=C/C=C(\C)C2 (single isomer, unassigned) = 8.21
COc1cc2cc(c1Cl)N(C)C(=O)C[C@H](OC(=O)C(C)(C)OCCCSC1CC(=O)N(C[C@H]3CC[C@H](C(=O)ON4C(=O)CCC4=O)CC3)C1=O)[C@]1(C)O[C@H]1[C@H](C)C1C[C@@](O)(NC(=O)O1)[C@H](OC)/C=C/C=C(\C)C2 (stereo partly drawn) = 6.68
COc1cc2cc(c1Cl)N(C)C(=O)C[C@H](OC(=O)[C@H](C)N(C)C(CCSSC)C(F)(F)F)[C@]1(C)O[C@H]1[C@H](C)[C@@H]1C[C@@](O)(NC(=O)O1)[C@H](OC)/C=C/C=C(\C)C2 (stereo partly drawn) = 8.62
COCC(S)(CCC(=O)N(C)[C@H](C)C(=O)OC1CC(=O)N(C)c2cc(cc(OC)c2Cl)C/C(C)=C/C=C/[C@@H](OC)[C@@]2(O)C[C@H](OC(=O)N2)[C@@H](C)[C@@H]2O[C@@]12C)COC (stereo partly drawn) = 6.34
COCC(C)(CCC(=O)N(C)[C@@H](C)C(=O)O[C@H]1CC(=O)N(C)c2cc(cc(OC)c2Cl)C/C(C)=C/C=C/[C@@H](OC)[C@@]2(O)C[C@H](OC(=O)N2)[C@@H](C)[C@@H]2O[C@@]12C)SSC (stereo partly drawn) = 8.37

We next turn to a different compound, shown below.
Q: Name the reported pIC50 value associated with the compound `COc1cc2cc(c1Cl)N(C)C(=O)C[C@H](OC(=O)[C@H](C)OCCSSC)[C@]1(C)O[C@H]1[C@H](C)[C@@H]1C[C@@](O)(NC(=O)O1)[C@H](OC)/C=C/C=C(\C)C2`
Result: 7.39

###

Reported log10(IC50) values are given for each entry in this list.
- System: Her2 low expression human MCF-7 breast tumor cells
- method_description: Cytotoxicity assay (growth inhibition, CellTiter-Glo) on MCF-7
- setup_conditions: Homo sapiens, MCF7, 120 h, read-out: Cytotoxicity assay IC50 MCF7, MCF-7 cells, 120 hours, CellTiter-Glo
Please be aware that the numbers have been log10-transformed from IC50 in nM.

Worked cases, answers included:
COc1cc2cc(c1Cl)N(C)C(=O)C[C@H](OC(=O)[C@H]1CC[C@H](CSSC)CC1)[C@]1(C)O[C@H]1[C@H](C)[C@@H]1C[C@@](O)(NC(=O)O1)[C@H](OC)/C=C/C=C(\C)C2 = 1.18
COc1cc2cc(c1Cl)N(C)C(=O)C[C@H](OC(=O)[C@H](C)OCCOCCSC1CC(=O)N(CCC(=O)NCCOCCOCCOCCC(=O)ON3C(=O)CCC3=O)C1=O)[C@]1(C)O[C@H]1[C@H](C)C1C[C@@](O)(NC(=O)O1)[C@H](OC)/C=C/C=C(\C)C2 (some centres unmarked) = 1.71
COCC(C)(CCC(=O)N(C)[C@H](C)C(=O)OC1CC(=O)N(C)c2cc(cc(OC)c2Cl)C/C(C)=C/C=C/[C@@H](OC)[C@@]2(O)C[C@H](OC(=O)N2)[C@@H](C)[C@@H]2O[C@@]12C)SSC (some centres unmarked) = 1.82
COc1cc2cc(c1Cl)N(C)C(=O)C[C@H](OC(=O)[C@H](C)N(C)C(=O)CCC(C)(C#N)SSC)[C@]1(C)O[C@H]1[C@H](C)[C@@H]1C[C@@](O)(NC(=O)O1)[C@H](OC)/C=C/C=C(\C)C2 (some centres unmarked) = 2.18
COc1cc2cc(c1Cl)N(C)C(=O)C[C@H](OC(=O)[C@H](C)OCCOCCSC1CC(=O)N(CCC(=O)NCCOCCOCCC(=O)ON3C(=O)CCC3=O)C1=O)[C@]1(C)O[C@H]1[C@H](C)C1C[C@@](O)(NC(=O)O1)[C@H](OC)/C=C/C=C(\C)C2 (some centres unmarked) = 2.52
COc1cc2cc(c1Cl)N(C)C(=O)C[C@H](OC(=O)[C@H](C)OCCOCCSC1CC(=O)N(C[C@H]3CC[C@H](C(=O)ON4C(=O)CCC4=O)CC3)C1=O)[C@]1(C)O[C@H]1[C@H](C)C1C[C@@](O)(NC(=O)O1)[C@H](OC)/C=C/C=C(\C)C2 (some centres unmarked) = 1.15
COc1cc2cc(c1Cl)N(C)C(=O)C[C@H](OC(=O)[C@H](C)OCCOCCSSC)[C@]1(C)O[C@H]1[C@H](C)[C@@H]1C[C@@](O)(NC(=O)O1)[C@H](OC)/C=C/C=C(\C)C2 = 1.61

Here's the next entry for you.
Q: Identify the measured log10(IC50) of COc1cc2cc(c1Cl)N(C)C(=O)C[C@H](OC(=O)COCCCSC1CC(=O)N(C[C@H]3CC[C@H](C(=O)ON4C(=O)CCC4=O)CC3)C1=O)[C@]1(C)O[C@H]1[C@H](C)C1C[C@@](O)(NC(=O)O1)[C@H](OC)/C=C/C=C(\C)C2 (some centres unmarked) for Her2 low expression human MCF-7 breast tumor cells.
Result: 2.23
